# Test system: Escherichia coli IAI1
# PROCEDURE_TEXT: fold change of Putrescine concentration vs plate DMSO controls (fold change (ratio)); higher = more amine produced, active = hit call of the paper (significant change in both replicates, either direction);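 for the amine columns active = adjusted P below 0.05 in both replicates with a change the same way and a mean fold change under 0.8 or over 1.25; inactive = the rest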
# MEASUREMENT_CONTEXT: incubation time: 27 h, anaerobic, 37 °C
Counter-ions that a name gives are not always drawn.
Output constraint: value belongs to Yes (active), No (inactive)

The examples below pair each entry with its known result.
INPUT: // param item: CN(CCOc1ccc(NS(C)(=O)=O)cc1)CCc1ccc(NS(C)(=O)=O)cc1 [Dofetilide] (20 µM) ; yields the recorded call
OUTPUT: No

INPUT: Any idea what this test logged for O=C1[C@@H]2[C@H]3CC[C@H](C3)[C@@H]2C(=O)N1CCCCN1CCN(c2ncccn2)CC1 [Tandospirone] (20 µM) ?
OUTPUT: No

INPUT: Tell me the assay call for OC[C@@H](O)[C@H](O)[C@@H](O)CO [Xylitol] (50 µM) please.
OUTPUT: No

INPUT: Hi team, can someone confirm the assay call for CS(=O)(=O)c1ccc([C@@H](O)[C@@H](CO)NC(=O)C(Cl)Cl)cc1 [Thiamphenicol] (20 µM) ?
OUTPUT: Yes

INPUT: Tell me the assay call for CSc1nc2cc(Cl)c(Oc3cccc(Cl)c3Cl)cc2[nH]1 [Triclabendazole] (20 µM) please.
OUTPUT: No

INPUT: Tell me the assay call for CC(CN(C)C)CN1c2ccccc2Sc2ccccc21 (stereo unspecified) [Trimeprazine tartrate] (20 µM) please.
OUTPUT: No

INPUT: Hello, I am checking results. What call was entered for C[n+]1ccccc1/C=N/O [Pralidoxime chloride] (20 µM) ?
OUTPUT: No

INPUT: Look up the recorded call for COc1ccc(-c2ccc3cc(C(=O)O)ccc3c2)cc1C12CC3CC(CC(C3)C1)C2 [Adapalene] (20 µM) in this test.
OUTPUT: No

INPUT: Outcome? COc1ccc2cc([C@@H](C)C(=O)O)ccc2c1 [(R) Naproxen sodium salt] (20 µM)
OUTPUT: No

INPUT: Assay result, entry CC[C@H]1OC(=O)[C@H](C)[C@@H](O[C@H]2C[C@@](C)(OC)[C@@H](O)[C@H](C)O2)[C@H](C)[C@@H](O[C@@H]2O[C@H](C)C[C@H](N(C)C)[C@H]2O)[C@](C)(O)C[C@@H](C)C(=O)[C@H](C)[C@@H](O)[C@]1(C)O [Erythromycin] (20 µM) — outcome?
OUTPUT: No

Further cases:
INPUT: Hey, what did the test say about CC(C)CN(C[C@@H](O)[C@H](Cc1ccccc1)NC(=O)O[C@H]1CO[C@H]2OCC[C@H]21)S(=O)(=O)c1ccc(N)cc1 [Darunavir] (20 µM) ?
OUTPUT: No

INPUT: Which outcome was entered for the molecule CC(=O)N[C@@H](CS)C(=O)O [Acetylcysteine] (20 µM) in this test?
OUTPUT: No

INPUT: Fill in: this test's call for C[C@H]1[C@H](OC(=O)CCC(=O)O)O[C@@H]2O[C@@]3(C)CC[C@H]4[C@H](C)CC[C@@H]1[C@@]24OO3 [Artesunate] (20 µM) is ___
OUTPUT: No

INPUT: Call for entry CN(C/C=C/c1ccccc1)Cc1cccc2ccccc12 [Naftifine hydrochloride] (20 µM) :
OUTPUT: No

---

Quick reference for fold change of Histamine concentration among some molecules
# System: Klebsiella aerogenes DSM 30053
# PROCEDURE_TEXT: fold change of Histamine concentration vs plate DMSO controls (fold change (ratio)); higher = more amine produced, active = hit call of the paper (significant change in both replicates, either direction)
# MEASUREMENT_CONTEXT: incubation time: 27 h, anaerobic, 37 °C
Structures can show the parent of a compound that is named as a salt.
Give the figure by itself; no unit, no explanation.

The recorded fold change of Histamine concentration for CC(=O)c1ccc2c(c1)N(CCCN1CCC(CCO)CC1)c1ccccc1S2 [Piperacetazine] (20 µM) is 0.95

Entry O=C(O)c1cccnc1 [Niacin] (20 µM) ; fold change of Histamine concentration = 0.97

Reported fold change of Histamine concentration ( Cc1cc(O)c(C(=O)N[C@@H](C(=O)N[C@@H]2C(=O)N3C(C(=O)O)=C(CSc4nnnn4C)CS[C@H]23)c2ccc(O)cc2)cn1 [Cefpiramide] (20 µM) ) = 0.829

The molecule listed as OCC1(O)OC[C@@H](O)[C@@H](O)[C@H]1O (stereo partly specified) [Psicose] (50 µM) has a reported fold change of Histamine concentration of 1.03

Query CN1CCCC(n2nc(Cc3ccc(Cl)cc3)c3ccccc3c2=O)CC1 (stereo unspecified) [Azelastine hydrochloride] (20 µM) yields fold change of Histamine concentration of 1.13

Next:
Entry COC1=C(OC)C(=O)C(CCCCCCCCCCO)=C(C)C1=O [Idebenone] (20 µM) ; fold change of Histamine concentration = 1.06

The molecule identified as CCC(C)(CN(C)C)OC(=O)c1ccccc1 (stereo unspecified) [Amyleine hydrochloride] (20 µM) registered its fold change of Histamine concentration at 1.02

Item: CCCCOc1cc(C(=O)NCCN(CC)CC)c2ccccc2n1 [Dibucaine] (20 µM) | fold change of Histamine concentration: 0.93

// CNC(C)CCC=C(C)C (stereo unspecified) [Isometheptene mucate] (20 µM) : fold change of Histamine concentration value = 1.09

The recorded fold change of Histamine concentration for entry C#Cc1cccc(Nc2ncnc3cc(OCCOC)c(OCCOC)cc23)c1 [Erlotinib] (20 µM) equals 1.05

// fold change of Histamine concentration lookup, molecule = Cc1c(O)cccc1C(=O)N[C@@H](CSc1ccccc1)[C@H](O)CN1C[C@H]2CCCC[C@H]2C[C@H]1C(=O)NC(C)(C)C [Nelfinavir mesylate] (20 µM) , result: 0.979

---

# Test system: Clostridium sporogenes DSM 1664
# PROCEDURE_TEXT: growth (OD595) fold change vs plate DMSO controls (fold change (ratio)); higher = more growth
# MEASUREMENT_CONTEXT: incubation time: 27 h, anaerobic, 37 °C
Structures can show the parent of a compound that is named as a salt.
MEASUREMENT_KIND: growth

Per the records, this compound ( COc1cc2/c(=N/c3ccc(Br)cc3F)nc[nH]c2cc1OCC1CCN(C)CC1 [Vandetanib] (20 µM) ) has growth equal to 1.15

---
Entry CN(C)CCCOc1nn(Cc2ccccc2)c2ccccc12 [Benzydamine hydrochloride] (20 µM) , growth reported as 1.1

---

Each record here notes measured growth.
# Tested on: Ruminococcus gnavus DSM 108212
# PROCEDURE_TEXT: growth (OD595) fold change vs plate DMSO controls (fold change (ratio)); higher = more growth
# MEASUREMENT_CONTEXT: incubation time: 27 h, anaerobic, 37 °C
Where a name gives a salt, the structure may show the parent alone.
Lab note: record just the number, no unit beside it.

The cases that follow already have their growth on record.
Value of measured growth for the entry CC/C(=C(/CC)c1ccc(O)cc1)c1ccc(O)cc1 [Diethylstilbestrol] (20 µM) : 0.991

Measured growth, Cc1scc2c1N(C(=O)CN1CCN(C)CC1)c1ccccc1NC2=O [Telenzepine dihydrochloride] (20 µM) : 1.01

growth measured on Nc1ncnc2c1ncn2[C@@H]1O[C@H](COP(=O)(O)O)[C@@H](O)[C@H]1O [5'-Adenylic acid] (50 µM) = 1.03

New cases:
// growth lookup, compound = Nc1nc2n[nH]nc2c(=O)[nH]1 [Azaguanine-8] (20 µM) , result: 0.846

Kindly note the recorded growth for CCCN(CCC)C(=O)C(CCC(=O)O)NC(=O)c1ccccc1 (stereo not drawn) [Proglumide] (20 µM) , which is 0.78

Entry Nc1nnc(-c2cccc(Cl)c2Cl)c(N)n1 [Lamotrigine] (20 µM) , growth reported as 0.963

Measured growth, O=C1NS(=O)(=O)c2ccccc21 [Saccharin] (50 µM) : 1.11

// field: growth; key: CCOC(=O)C1=C(C)NC(C)=C(C(=O)OC)C1c1cccc([N+](=O)[O-])c1 (stereo not drawn) [Nitrendipine] (20 µM) ; value = 1.06

---

# Test system: Ruminococcus gnavus DSM 108212
# PROCEDURE_TEXT: growth (OD595) fold change vs plate DMSO controls (fold change (ratio)); higher = more growth
# MEASUREMENT_CONTEXT: incubation time: 27 h, anaerobic, 37 °C
Counter-ions that a name gives are not always drawn.
# binarize growth: threshold 0.9 inclusive, high side 1, low side 0

Known results for compounds:
INPUT: Could you verify whether the entry O=C(CCCN1CCC(O)(c2ccc(Cl)cc2)CC1)c1ccc(F)cc1 [Haloperidol] (20 µM) shows growth of no less than 0.9?
OUTPUT: 0

INPUT: State whether the measured growth reaches 0.9, counting equality as reaching it, for CCN(CC)C(=O)N1CCN(C)CC1 [Diethylcarbamazine citrate] (20 µM)
OUTPUT: 1

INPUT: hey, is growth for this one >= 0.9? Cn1c(=O)c2c(ncn2C)n(C)c1=O [Caffeine] (20 µM)
OUTPUT: 1

From here, focus on the item given below.
INPUT: Check this compound for growth at or above 0.9: CCCCOC(=O)c1ccc(N)cc1 [Butamben] (20 µM)
OUTPUT: 1

Where do the numbers come from? From the supplement of paper PMC12494721.
